Experiment: yeast display, Sf9 membrane polyspecificity reagent, FACS + sequencing; frameworks hold sequencing errors
reported-metric: polyreactivity (PSR sort gate)

Example entries and their recorded answers appear below.
[
  {
    "construct-sequence": "QVQLVESGGGLVQAGGSLRLSCAASGSTFLYYAMGWYRQAPGKERELVARITTRVGRTYYADSVKGRFTISRDNAKNTVYFQMNSLKPEDTAVYYCAAYPDYSYYYWGQGTQVTVSS",
    "polyreactivity (PSR sort gate)": "high polyreactivity"
  },
  {
    "construct-sequence": "QVQLVESGGGLVQAGGCLRLSCAASGFTLRYNAMGWSRQAPGKERELVAAITTGGRTNYADSVKGRFTISRDNAKKTVYLQMNSLKPEDTAVYNCNKVFRSFDYWGQGTQVTVSS",
    "polyreactivity (PSR sort gate)": "high polyreactivity"
  },
  {
    "construct-sequence": "QVQLVESGGGLVQAGGSLRLSCAASGYIFQDYAMGWYRPAPGKERELVAAITSGGSTYYADSVKGRFTISRDNAKNTVYLQMNSLKPEDTAVYYCAAVGYYSVPGYSSRRYYYWGQGTQVTVSS",
    "polyreactivity (PSR sort gate)": "high polyreactivity"
  },
  {
    "construct-sequence": "QVQLVESGGGLVQAGGSLRLSCAASGFTFWKYAMGWYRQAPGKERELVAAISVSGGRTYYADSVKGRFTISRDNAKNTVYLQMNSLKPEDTAVYYCNATPWRPYVGGEYWGQGTQVTVSS",
    "polyreactivity (PSR sort gate)": "high polyreactivity"
  },
  {
    "construct-sequence": "QVQLVESGGGLVQAGGSLRLSCASSGRIFGSYAMGWYRQAPGKERELVAGIRSVGSTNYADSVKGRFTISRDNAKNTVFLQINSLKPEDTAVYYCAARLWHLSYAGQGGDYWGQVTQVTVSS",
    "polyreactivity (PSR sort gate)": "low polyreactivity"
  }
]

Prompt line: Could you please provide reported polyreactivity (PSR sort gate) for `QVQLVESGGGLVQAGGSLRLSCAASGFTFNRYAMGWYRQAPGKERELVAAISWSGTSTYYADSVKGRFTISRDNAKNTVYLQMNSLKPEDTAVYYCAARVKGQWNTYDYWGQGTQVTVSS` ? Thanks!
Response line: high polyreactivity

Prompt line: Could you please provide reported polyreactivity (PSR sort gate) for `QVQLVESGGGLVQAGGSLRLSCAASGRIFWDNAMGWYRQAPVKERELVAAISGGASTYADSVKGRFTISRDNAKNTVYLQMNSLKAEDTSVYYCYAFQSPVEEEYYWGQGTQVTVSS` ? Thanks!
Response line: low polyreactivity

Prompt line: Could you please provide reported polyreactivity (PSR sort gate) for `QVQLVESGGGLVQAGGSLRLSCAASGSTFFIYAMGWYRPAPGKERELVAAISWRDGSTYYADSVKGRFTISRDNAKNTVYLQMNSLKPEDTAVYYCAADYLLPWGIELDYWGQGTQVTVSS` ? Thanks!
Response line: high polyreactivity

Prompt line: Could you please provide reported polyreactivity (PSR sort gate) for `QVQLVDSGAGLVQAGGSLRISCVPPDSTTQSKLGDRIHRRLGKKVTWLPVLTSRGVGSYYADSVKGRFTISRDNAKNTVYLQMNSLIPEDTAVYYCNARYEVFYRYDYWGQGTQVSVSS` ? Thanks!
Response line: low polyreactivity

Prompt line: Could you please provide reported polyreactivity (PSR sort gate) for `QVQLVESGGGLVQAGGSLRLSCAASGFTFLSYTMGWYRQAPGKERELVASITASGTRTYYADSVKGRFTISRDNAKNTVYLQMNRLKPEDTAVYYCAARRSGSGSHDYGYWGQGTQVTVSS` ? Thanks!
Response line: low polyreactivity
